Reference for the values: patent US9856216B2

Tested System: TNIK (Homo sapiens, UniProt Q9UKE5)
Construct: purchased Promega V4158
Sequence (Q9UKE5 1-367 limits assumed): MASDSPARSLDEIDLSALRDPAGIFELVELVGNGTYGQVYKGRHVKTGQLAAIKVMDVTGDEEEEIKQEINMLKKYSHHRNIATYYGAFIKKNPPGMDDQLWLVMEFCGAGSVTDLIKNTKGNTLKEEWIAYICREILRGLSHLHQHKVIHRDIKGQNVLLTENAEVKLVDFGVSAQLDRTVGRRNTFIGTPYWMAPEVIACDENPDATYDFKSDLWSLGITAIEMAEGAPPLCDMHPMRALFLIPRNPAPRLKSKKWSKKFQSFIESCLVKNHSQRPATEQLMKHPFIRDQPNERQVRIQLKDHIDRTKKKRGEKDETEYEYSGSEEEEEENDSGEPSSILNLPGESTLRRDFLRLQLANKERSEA
Method Description: ADP-Glo Kinase Assay, inhibition activity on TNIK
Format: biochemical
Condition Description: read-out: TNIK
Assay Readout: IC50 (nM)

Smiles Code | Unit Name | IC50
CN(C)CCNc1ccc(C(=O)Nc2ccc(-c3ccco3)c3c2C(=O)NC3)cc1 | nM | 540
COCCCNc1ccc(C(=O)Nc2ccc(-c3ccco3)c3c2C(=O)NC3)cc1 | nM | 980
O=C(Nc1ccc(-c2ccccc2)c2c1C(=O)NC2)c1ccc(NCCCCO)cc1 | nM | 380

a. O=C(Nc1ccc(-c2ccccc2)c2c1C(=O)NC2)c1cccs1
b. O=C(Nc1ccc(-c2cccs2)c2c1C(=O)NC2)c1ccc(NCCN2CCOCC2)cc1
c. CC(C)NC(=O)Nc1ccc(-c2ccccc2)c2c1C(=O)NC2
d. COc1ccccc1-c1ccc(N)c2c1C(=O)NC2=O
Problem: Arrange the 4 entries by IC50 so the values rise. Answer format: list of labels, ordered as asked.
Result: a, b, c, d
(a: 350 nM, b: 540 nM, c: 1900 nM, d: 10900 nM)

###

Tested System: TNIK (Homo sapiens)
Construct: purchased Promega V4158
Method Description: ADP-Glo Kinase Assay, inhibition activity on TNIK
Assay type: biochemical
Condition Description: read-out: TNIK
Procedure: The inhibition activities on TNIK, IKKε and TBK1 were measured by a luminometer, TNIK/IKKε/TBK1 Kinase Enzyme System (Promega, Ca# V4158; Invitrogen, PR8031B, Promega, Ca# V3991) and ADP-Glo Kinase Assay using ADP-Glo™ Kinase Analysis Kit (Promega, Ca# V9101) and a kinase reaction buffer [40 mM Tris(pH 7.5), 20 mM MgCl2, 0.1 mg/mL BSA] in accordance with the manufacturer's protocol.
Assay Readout: IC50 (nM)

1. O=C(Nc1ccc(Nc2ccccc2)c2c1C(=O)NC2)c1ccc(NCCCCO)cc1
2. COc1cccc(-c2ccc(NC(=O)c3ccc(NCCN4CCCC4)cc3)c3c2CNC3=O)c1OC [Example 299]
3. N#Cc1ccccc1-c1ccc(NC(=O)c2ccccc2)c2c1CNC2=O
4. CCOc1cccc(-c2ccc(NC(=O)c3ccccc3)c3c2CNC3=O)c1
Problem: Please list these in order of increasing IC50. Thank you! Answer format: list of labels, ordered as asked.
Result: 2, 1, 3, 4

###

Target sequence: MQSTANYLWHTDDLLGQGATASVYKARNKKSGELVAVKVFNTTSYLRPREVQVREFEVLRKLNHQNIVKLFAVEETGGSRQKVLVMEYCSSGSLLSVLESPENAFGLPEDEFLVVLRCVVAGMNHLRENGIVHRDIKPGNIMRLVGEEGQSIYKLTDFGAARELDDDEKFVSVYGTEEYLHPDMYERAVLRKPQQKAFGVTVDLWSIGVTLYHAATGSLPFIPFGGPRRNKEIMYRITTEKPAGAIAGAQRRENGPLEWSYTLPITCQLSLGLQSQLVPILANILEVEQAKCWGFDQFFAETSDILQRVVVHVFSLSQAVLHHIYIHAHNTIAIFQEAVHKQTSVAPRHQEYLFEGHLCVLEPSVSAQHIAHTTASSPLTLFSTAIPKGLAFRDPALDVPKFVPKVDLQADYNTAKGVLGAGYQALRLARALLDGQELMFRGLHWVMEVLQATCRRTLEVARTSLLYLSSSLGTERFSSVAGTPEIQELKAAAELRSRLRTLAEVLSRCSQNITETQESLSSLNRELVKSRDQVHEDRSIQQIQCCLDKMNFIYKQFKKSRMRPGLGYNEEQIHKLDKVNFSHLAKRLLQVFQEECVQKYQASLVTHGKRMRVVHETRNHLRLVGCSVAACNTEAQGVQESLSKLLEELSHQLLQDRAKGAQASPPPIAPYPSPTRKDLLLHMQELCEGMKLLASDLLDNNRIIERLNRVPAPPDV
Assay Readout: IC50 (nM)

Sample records with IC50:
Smiles Code | Unit Name | Meas Value
Nc1ccc(-c2ccnc(Nc3ccccc3)n2)c2c1C(=O)NC2 | nM | 280
CC(=O)Nc1ccc(-c2cnc3[nH]cc(-c4ccc(N)c5c4CNC5=O)c3c2)cc1 | nM | 160
CC(=O)Nc1ccc(Nc2nccc(-c3ccc(N)c4c3CNC4=O)n2)cc1 | nM | 350
COc1cccc(Nc2nccc(-c3ccc(NC(C)=O)c4c3CNC4=O)n2)c1 | nM | 630
Nc1ccc(-c2ccnc(Nc3ccc(F)cc3)n2)c2c1C(=O)NC2 | nM | 560
Cc1ccc(Nc2nccc(-c3ccc(N)c4c3CNC4=O)n2)cc1 | nM | 870

a. CN(C)c1ccc(-c2ccnc(Nc3cccc(F)c3)n2)c2c1C(=O)NC2
b. CC(=O)Nc1ccc(-c2ccnc(Nc3cccc(C)c3)n2)c2c1C(=O)NC2
Problem: Just tell me: smaller IC50 value, a or b ? Please respond with the label that marks your chosen entry.
Result: b

P. COc1cccc(Nc2nccc(-c3ccc(N(C)C)c4c3CNC4=O)n2)c1
Q. Nc1ccc(-c2ccnc(Nc3cccc(F)c3)n2)c2c1C(=O)NC2
R. Cn1cc(Nc2nccc(-c3ccc(N)c4c3CNC4=O)n2)cn1
S. COc1cccc(Nc2nccc(-c3ccc(N)c4c3CNC4=O)n2)c1
T. CCCCN(C)c1ccc(-c2ccnc(Nc3cccc(OC)c3)n2)c2c1C(=O)NC2
Problem: Order these by IC50, descending, and give the full ranking. Answer format: list of labels, ordered as asked.
Result: T, P, Q, R, S
